The reported numbers originate from PubChem BioAssay (NCI).

Each entry below carries its reported growth inhibition.
- ASSAY: NCI Yeast Anticancer Drug Screen. Data for the bub3 strain (AID 167)
- EXPERIMENTAL_CONTEXT: S. cerevisiae bub3 mutant strain, at 50.0 µM (retest, dose inferred, filed as 5.0), hits give high values
About 79,000 compounds went through this panel and 15% of them were active in at least one assay; those are over-represented in the sample as a whole. Active and inactive are the calls of the source. Rule as the data show it: active = growth inhibition above about 70%; inactive = the rest.

| COMPOUND | growth inhibition |
| --- | --- |
| OC(Cc1ccccc1)(c1ccccc1)C(O)(Cc1ccccc1)c1ccccc1 (stereo not given) | 61% (inactive) |
| N#CCCN(CCCN1CCOCC1)C(=S)Nc1cccc(C(F)(F)F)c1 | 58% (inactive) |
| C[C-](O)O.O/C(=C\[C-](O)c1ccccc1)c1ccccc1.O/C(=C\[C-](O)c1ccccc1)c1ccccc1.[Nd+3] (stereo not given) | 20% (inactive) |
| CC(C)CC(NC(=O)COc1c(Cl)cc(Cl)c(Cl)c1Cl)C(=O)O (stereo not given) | 10% (inactive) |
| CC(=O)c1c(CO[N+](=O)[O-])n([O-])c2ccccc2[n+]1=O | -4% (inactive) |
| O=C(/C=C/c1cccc(Cl)c1)c1ccccc1 | 98% (active) |
| O=C1C=CC(=Nc2cc3c(cc2Br)-c2ccccc2C3Br)O1 (stereo not given) | 99% (active) |
| O=C(O)c1ccc2c(c1)CC1(C2)Cc2cc3c(cc2C1=O)CCC3 (stereo not given) | 12% (inactive) |
| COC(=O)CCC(NC(=S)N/N=C/c1ccccn1)C(=O)OC (stereo not given) | 59% (inactive) |
| CC(=O)OCC(=O)[C@@]1(O)CC[C@H]2[C@@H]3CCC4=CC(=O)C=C[C@]4(C)[C@@]3(F)[C@@H](O)C[C@@]21C | 51% (inactive) |
